Tested on: HT-29
Assay: Down regulation of hTERT expression in human HT-29 cells assessed as hTERT expression level at 1 uM after 48 hrs by RT-qPCR analysis relative to control
Type: functional

- compound: "O=C1N=C(N2CCOCC2)S/C1=C\\c1ccc(-c2ccc(C(=O)O)c(O)c2)o1"
  Activity: "51%"
- compound: "O=C1N=C(Nc2ccc(F)c(Cl)c2)S/C1=C\\c1ccc(-c2ccc(C(=O)O)c(O)c2)o1"
  Activity: "53%"
- compound: "O=C1/C(=C/c2ccc(-c3cc(C(F)(F)F)ccc3Cl)o2)SC(=S)N1Cc1ccc(F)cc1"
  Activity: "37%"
- compound: "Oc1ccc(/C=C/c2cc(O)cc(O)c2)cc1 [RESVERATROL]"
  Activity: "28%"

----------
Consider the following molecules and their measured IC50 readings.
System: Human immunodeficiency virus 1
Test: Antiviral activity against HIV-1 NL4.3 infected in human TZM-b1 cells pretreated for 1 hr followed by viral infection measured after 2 days by CPRG assay
Format: functional, cell-based
Conditions: Human immunodeficiency virus 1, NL4.3, TZM-b1
measurement kind: IC50

- substance smiles: "O=C1/C(=C/c2ccc(-c3cc(C(F)(F)F)ccc3Cl)o2)SC(=S)N1Cc1ccc(F)cc1"
  assayed target: "Human immunodeficiency virus 1"
  result: "17.3 µM"
- substance smiles: "O=C1N=C(NCCc2ccc(Cl)c(Cl)c2)S/C1=C\\c1ccc(-c2ccc(C(=O)O)c(O)c2)o1"
  assayed target: "Human immunodeficiency virus 1"
  result: "1.8 µM"
- substance smiles: "O=C1/C(=C/c2ccc(-c3cc(C(F)(F)F)ccc3Cl)o2)SC(=S)N1Cc1ccc(Cl)cc1"
  assayed target: "Human immunodeficiency virus 1"
  result: "6.9 µM"
- substance smiles: "O=C1N=C(Nc2ccc(F)c(Cl)c2)S/C1=C\\c1ccc(-c2ccc(C(=O)O)c(O)c2)o1"
  assayed target: "Human immunodeficiency virus 1"
  result: "1 µM"
- substance smiles: "O=C(O)c1ccc(-c2ccc(/C=C3\\SC(=S)N(CCc4ccc(Cl)c(Cl)c4)C3=O)o2)cc1O"
  assayed target: "Human immunodeficiency virus 1"
  result: "4.8 µM"
- substance smiles: "O=C1N=C(N2CCOCC2)S/C1=C\\c1ccc(-c2ccc(C(=O)O)c(O)c2)o1"
  assayed target: "Human immunodeficiency virus 1"
  result: "13.4 µM"
- substance smiles: "CCc1ccc(CCNC2=NC(=O)/C(=C/c3ccc(-c4ccc(C(=O)O)c(O)c4)o3)S2)cc1"
  assayed target: "Human immunodeficiency virus 1"
  result: "1 µM"
- substance smiles: "Cc1nnc(C(=O)NC(C)(C)c2nc(C(=O)NCc3ccc(F)cc3)c(O)c(=O)n2C)o1"
  assayed target: "Human immunodeficiency virus 1"
  result: "0.021 µM"

----------
System: HT-29
Assay: Growth inhibition of human HT-29 cells after 2 days by MTT assay
Assay type: functional, cell-based
Conditions: HT-29, 48 h
pIC50: −log10 of the molar value.

- substance smiles: "O=C1/C(=C/c2ccc(-c3cc(C(F)(F)F)ccc3Cl)o2)SC(=S)N1Cc1ccc(Cl)cc1"
  relation: "="
  pIC50: 5.08
- substance smiles: "O=C1N=C(NCCc2ccc(Cl)c(Cl)c2)S/C1=C\\c1ccc(-c2ccc(C(=O)O)c(O)c2)o1"
  relation: "<"
  pIC50: 4.00
- substance smiles: "Oc1ccc(/C=C/c2cc(O)cc(O)c2)cc1"
  relation: "="
  pIC50: 3.86
- substance smiles: "CCc1ccc(CCNC2=NC(=O)/C(=C/c3ccc(-c4ccc(C(=O)O)c(O)c4)o3)S2)cc1"
  relation: "="
  pIC50: 4.59
- substance smiles: "O=C1N=C(N2CCOCC2)S/C1=C\\c1ccc(-c2ccc(C(=O)O)c(O)c2)o1"
  relation: "="
  pIC50: 5.64
- substance smiles: "O=C1N=C(Nc2ccc(F)c(Cl)c2)S/C1=C\\c1ccc(-c2ccc(C(=O)O)c(O)c2)o1"
  relation: "="
  pIC50: 5.96
- substance smiles: "O=C1/C(=C/c2ccc(-c3cc(C(F)(F)F)ccc3Cl)o2)SC(=S)N1Cc1ccc(F)cc1"
  relation: "="
  pIC50: 5.34
- substance smiles: "O=C(O)c1ccc(-c2ccc(/C=C3\\SC(=S)N(CCc4ccc(Cl)c(Cl)c4)C3=O)o2)cc1O"
  relation: "<"
  pIC50: 4.00

----------
Assay: Apparent permeability of the compound in phosphate buffer at pH 7.4 by PAMPA
Type: physicochemical

- compound: "Cn1c(=O)c2c(ncn2C)n(C)c1=O [CAFFEINE]"
  unit text: "×10⁻⁶ cm/s"
  relation: "<"
  Papp: 0.1
- compound: "O=C1N=C(N2CCOCC2)S/C1=C\\c1ccc(-c2ccc(C(=O)O)c(O)c2)o1"
  unit text: "×10⁻⁶ cm/s"
  relation: "="
  Papp: 1.28
- compound: "O=C1N=C(Nc2ccc(F)c(Cl)c2)S/C1=C\\c1ccc(-c2ccc(C(=O)O)c(O)c2)o1"
  unit text: "×10⁻⁶ cm/s"
  relation: "="
  Papp: 1.58
- compound: "CC(C)NCC(O)COc1cccc2ccccc12 (centres undefined) [PROPRANOLOL]"
  unit text: "×10⁻⁶ cm/s"
  relation: "="
  Papp: 9.68

----------
Assay: Selectivity index, ratio of IC50 for HEK293 cells to IC50 for human HT-29 cells
Type: functional
measurement kind: Ratio IC50

- substance smiles: "O=C1N=C(N2CCOCC2)S/C1=C\\c1ccc(-c2ccc(C(=O)O)c(O)c2)o1"
  measurement kind: "Ratio IC50"
  relation: "="
  quantitative result: 23.04
- substance smiles: "O=C1/C(=C/c2ccc(-c3cc(C(F)(F)F)ccc3Cl)o2)SC(=S)N1Cc1ccc(F)cc1"
  measurement kind: "Ratio IC50"
  relation: "="
  quantitative result: 0.52
- substance smiles: "O=C1N=C(Nc2ccc(F)c(Cl)c2)S/C1=C\\c1ccc(-c2ccc(C(=O)O)c(O)c2)o1"
  measurement kind: "Ratio IC50"
  relation: "="
  quantitative result: 10.91
- substance smiles: "O=C(O)c1ccc(-c2ccc(/C=C3\\SC(=S)N(CCc4ccc(Cl)c(Cl)c4)C3=O)o2)cc1O"
  measurement kind: "Ratio IC50"
  relation: "<"
  quantitative result: 0.29
- substance smiles: "O=C1/C(=C/c2ccc(-c3cc(C(F)(F)F)ccc3Cl)o2)SC(=S)N1Cc1ccc(Cl)cc1"
  measurement kind: "Ratio IC50"
  relation: "="
  quantitative result: 0.51
- substance smiles: "CCc1ccc(CCNC2=NC(=O)/C(=C/c3ccc(-c4ccc(C(=O)O)c(O)c4)o3)S2)cc1"
  measurement kind: "Ratio IC50"
  relation: "="
  quantitative result: 0.13

----------
Listing of entries alongside the reported Ratio IC50.
Experiment: Selectivity index, ratio of IC50 for BAEC cells to IC50 for human HT-29 cells
Type: functional

- substance smiles: "O=C1/C(=C/c2ccc(-c3cc(C(F)(F)F)ccc3Cl)o2)SC(=S)N1Cc1ccc(F)cc1"
  relation: "="
  Ratio IC50: 0.48
- substance smiles: "O=C1/C(=C/c2ccc(-c3cc(C(F)(F)F)ccc3Cl)o2)SC(=S)N1Cc1ccc(Cl)cc1"
  relation: "="
  Ratio IC50: 0.29
- substance smiles: "O=C1N=C(Nc2ccc(F)c(Cl)c2)S/C1=C\\c1ccc(-c2ccc(C(=O)O)c(O)c2)o1"
  relation: "="
  Ratio IC50: 22.72
- substance smiles: "O=C1N=C(N2CCOCC2)S/C1=C\\c1ccc(-c2ccc(C(=O)O)c(O)c2)o1"
  relation: "="
  Ratio IC50: 33.04
- substance smiles: "O=C(O)c1ccc(-c2ccc(/C=C3\\SC(=S)N(CCc4ccc(Cl)c(Cl)c4)C3=O)o2)cc1O"
  relation: "<"
  Ratio IC50: 0.86
- substance smiles: "CCc1ccc(CCNC2=NC(=O)/C(=C/c3ccc(-c4ccc(C(=O)O)c(O)c4)o3)S2)cc1"
  relation: "="
  Ratio IC50: 0.77

----------
Assay: Aqueous solubility of the compound in water at 1 mg after 24 to 36 hrs by LC-MS/MS analysis
Format: physicochemical
This listing pairs compounds with measured solubility.

- substance smiles: "O=C1N=C(Nc2ccc(F)c(Cl)c2)S/C1=C\\c1ccc(-c2ccc(C(=O)O)c(O)c2)o1"
  solubility, µM: 11.8
- substance smiles: "O=C1N=C(N2CCOCC2)S/C1=C\\c1ccc(-c2ccc(C(=O)O)c(O)c2)o1"
  solubility, µM: 9.7
